Recorded z-score for the following compounds
Assay: growth of efflux-deficient E. coli DRC39 – strain DRC39, OD650, 48 h, E. coli filamentation inducers, primary screen (AID 1179);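 note: screen aims at cell division blockers that make cells filament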
Settings: E. coli DRC39 delta-acrAB growth, higher = more signal, called active from +8 up or from −8 down
The answer should be written as a number, with no unit following it.

Below, each entry is followed by its recorded z-score result.
C/C=C/[C@H](CCn1cc([C@H](O)c2ccccc2)nn1)[Si](C)(C)c1ccc(OC)cc1 = -0.0867
O=C1C2C=CC(C(O)c3ccc(-c4ccccc4)s3)N(Nc3ccccc3F)C2C(=O)N1c1ccccc1 (centres undefined) = -0.795
C=CCOC(=O)[C@H]1[C@@H]2C(=O)O[C@@H](c3ccccc3)[C@@H](c3ccccc3)N2[C@@H](c2ccc(OCCOC(=O)[C@@H]3C[C@@H]4C(=O)NCC(=O)N4[C@@H]3c3ccc(O)cc3)cc2)[C@]12C(=O)Nc1ccc(I)cc12 = -0.51

Okay, next one:
(Q) Value lookup for z-score; key = COc1ccc([Si](C)(C)[C@H]2[C@H](CC(=O)N3CCC[C@H]3CO)O[C@@]3(C(=O)N(Cc4cccc(N5CCC5=O)c4)c4ccccc43)[C@@H]2C)cc1
(A) 0.473

====

Target: Fibroblast growth factor 2 (Homo sapiens) (UniProt P09038)
Sequence (P09038 whole entry, looked up): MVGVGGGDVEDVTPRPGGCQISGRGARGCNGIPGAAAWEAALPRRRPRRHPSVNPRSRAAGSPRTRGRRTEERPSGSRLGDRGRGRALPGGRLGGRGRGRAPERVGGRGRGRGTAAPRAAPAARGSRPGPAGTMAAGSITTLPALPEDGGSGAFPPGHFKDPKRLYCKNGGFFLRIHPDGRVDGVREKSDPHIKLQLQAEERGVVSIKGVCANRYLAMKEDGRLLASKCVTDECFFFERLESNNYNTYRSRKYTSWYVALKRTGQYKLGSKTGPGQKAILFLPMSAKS
Assay: basic fibroblast growth factor binding to printed compounds – biochemical, small-molecule microarray, 635/667 nm fluorescence, primary screen (AID 1133)
Conditions: FGF2, fluorescence 635/667, higher = more signal
Reported composite z-score by item:
The answer should be a number; do not append a unit.

Below, each entry is followed by its recorded composite z-score result.
CCCNC(=O)[C@@]1(c2ccc([N+](=O)[O-])cc2)CC(=O)N(CC23CC4CC(CC(C4)C2)C3)[C@@H]1c1ccc(CO)cc1I = 0.753
C=CC[C@]1(C(=O)O)N=C(c2ccc(OCCCO)cc2)O[C@H]1c1ccccc1CN=[N+]=[N-] = -0.39
CCCNC(=O)[C@@]1(C)c2ccccc2C(=O)N(Cc2cc(C(F)(F)F)cc(C(F)(F)F)c2)[C@H]1c1ccc(CO)cc1 = 0.68
CN1C(=O)C2C(C1=O)C1C=C(c3ccc(CO)cc3)C2C(C2CC2)N1Cc1cc2c(cc1Br)OCO2 (configuration not stated) = 0.784
CS(=O)(=O)CCOC(=O)C1=CC(c2ccc(CO)cc2)=CC(c2cccs2)N(Cc2cccc(OC(F)(F)F)c2)C=C1C(=O)OCCS(C)(=O)=O (configuration not stated) = 0.0903

(Q) Query: composite z-score; subject: CN1C(=O)C2C=CC(C(O)c3ccccc3)N(NC(=O)OC(C)(C)C)C2C1=O (configuration not stated)
(A) -0.27

(Q) Tell me the measured composite z-score of C[N+](C)(C)CCCC[C@@H]1NC(=O)[C@@H]2C[C@H](C(=O)NCCCCCCNC(=O)CS)[C@H](c3cccc(OCCO)c3)N2C1=O , please.
(A) 1.2

====

Experiment: small molecules captured by biotinylated probe aFSTL3 – biochemical, small-molecule microarray, fluorescence 635/667, stem cell growth factor project, primary screen (AID 1064);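 note: measures binding of the biotinylated anti-FSTL3 antibody to printed compounds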
Settings: higher = more signal
measured.endpoint: composite z-score

// below: answered molecules
C=CCC(OC(C)=O)[C@@H]1[C@@H](N(Cc2ccc(-c3ccccc3)cc2)C(=O)c2ccc(C)cc2)c2cc(OCCCO)ccc2N1C(=O)c1ccc2ccccc2n1 (stereo not given in full) = -0.131
C=C(CCCC)/C(=C/C[C@@H](OC(=O)c1ccncc1)c1ccc(CO)o1)c1cc(C(=O)OC)ccc1OC = -0.489
CC(c1ccccc1)C(O)C1C=CC2C(=O)N(Cc3ccccc3)C(=O)C2N1n1cnnc1 (stereo not given) = -0.0479
O=S(=O)(NCCCO)c1ccc(Br)cc1 = -0.109

(Q) For the molecule shown here, C[C@H]1C2[C@H](Cc3ccccc3)NC(=O)[C@]23C(=O)N[C@H](Cc2ccccc2)C(=O)N[C@H](Cc2ccccc2)C(=O)NC/C=C/CCC/C=C/C3[C@@H]2O[C@]12C (stereo not given in full) , give the reported composite z-score.
(A) -0.367
